Target: T1, R^525–610 L569H, N6His- and GST-tagged recombinant protein (maize)
T1 chain: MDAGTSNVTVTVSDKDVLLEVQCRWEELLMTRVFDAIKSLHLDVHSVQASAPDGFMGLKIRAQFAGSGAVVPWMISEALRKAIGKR
Assay: biological repeat 1
endpointName: Kd (nM)
# number only, unit nM dropped from output

Request: Give the measured Kd of R^525–610 V568S, N6His- and GST-tagged recombinant protein (domain or fragment) MDAGTSNVTVTVSDKDVLLEVQCRWEELLMTRVFDAIKSLHLDSLSVQASAPDGFMGLKIRAQFAGSGAVVPWMISEALRKAIGKR .
Result: 340
